The reported numbers originate from patent US20230374140A1.

target: T1, NC4 peptide … / HLA-A*02:01 complex (human); assay: FACS, scFv phage on T2 cells loaded with single peptide
T1 construct: whole, on cells; On pulsed T2 cells
test-readout: binding result

Clone 19 scFv phage clone (Clone 19 scFv) (scFv) scFv: NFMLTQPHSVSESPGKTVTISCVRSSGSVASEFVQWYQQRPGHAPTLVIYNDFQRPSGVPDRFSGSIDKSSNSASLTISGLKAEDEADYYCQSYDQSSSIVFGGGTKLTVLGSRGGGGSGGGGSGGGGSLEMAEVQLVQSGAEVKKPGESLKISCKGSGYSFTTYWIGWVRQMPGKGLEWMGIIYPGDSDTTYSPSFQGQVTISADKSLSIAYLQWSSLKASDTAMYYCARYGGQYFWSDSFDSWGQGTLVTVSS : no binding
Clone 11 scFv phage clone (Clone 11 scFv) (scFv) scFv: NFMLTQPHSVSESPGKTVTISCTRSSGSIASNYVQWYQQRPGSAPTTVIYEDNQRPSGVPDRFSGSIDSSSNSASLTISGLKTEDEADYYCQSYDSSNVVFGGGTKLTVLGSRGGGGSGGGGSGGGGSLEMAQVQLVQSGAEVRKPGASVKVSCKASGYSFTSNGITWVRQAPGQGLEWMGWISGYNANTRYAQEFQARVTMTTDTSASTAYMELRSLRSDDTAVYYCARHAYWGGDSDYWGQGTLVTVSS : no binding
